- target_system: CAIV (Homo sapiens)
- Sequence (P22748 19-312): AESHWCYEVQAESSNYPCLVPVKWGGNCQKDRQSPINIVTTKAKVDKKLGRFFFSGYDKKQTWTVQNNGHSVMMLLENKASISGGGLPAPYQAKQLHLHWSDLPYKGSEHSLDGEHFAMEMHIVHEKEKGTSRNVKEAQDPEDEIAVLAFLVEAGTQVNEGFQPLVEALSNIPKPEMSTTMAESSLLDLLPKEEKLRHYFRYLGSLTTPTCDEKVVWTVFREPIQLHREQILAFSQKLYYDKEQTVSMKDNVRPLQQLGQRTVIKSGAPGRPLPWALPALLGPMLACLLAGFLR
- experiment: fluorescent thermal shift assay (FTSA), CAIV
- Assay type: binding
- assay_conditions: converted from Kd_intr, 37 °C, independent of pH
Each entry below carries its recorded ΔGintr CAIV.
measured_metric: ΔGintr CAIV

>>> value_reported("COC(=O)c1cc(S(N)(=O)=O)c(SC2CCCCCCCCCCC2)cc1Cl")
"-14 kcal/mol"
>>> value_reported("COC(=O)c1cc(S(N)(=O)=O)c(SC2CCCCC2)cc1Cl")
"-13.6 kcal/mol"
>>> value_reported("COC(=O)c1cc(S(N)(=O)=O)c(S(=O)(=O)CCc2ccccc2)cc1Cl")
"≥ -9.99 kcal/mol"
>>> value_reported("COC(=O)c1cc(S(N)(=O)=O)c(Cl)cc1S(=O)(=O)c1cccc2ccccc12")
"-13.1 kcal/mol"
>>> value_reported("COC(=O)c1cc(S(N)(=O)=O)c(S(=O)(=O)C2CCCCC2)cc1Br")
"-11 kcal/mol"
>>> value_reported("COC(=O)c1cc(S(N)(=O)=O)c(Cl)cc1S(=O)(=O)C1CCCCC1")
"-12 kcal/mol"
>>> value_reported("COC(=O)c1cc(S(N)(=O)=O)c(Cl)cc1SCCc1ccccc1")
"-12.5 kcal/mol"
>>> value_reported("COC(=O)c1cc(S(N)(=O)=O)c(Cl)cc1S(=O)(=O)Cc1ccccc1")
"-12.5 kcal/mol"
>>> value_reported("COC(=O)c1cc(S(N)(=O)=O)c(Br)cc1Sc1ccccc1")
"-14.7 kcal/mol"
>>> value_reported("COC(=O)c1cc(S(N)(=O)=O)c(Cl)cc1SC1CCCCC1")
"-14.4 kcal/mol"
>>> value_reported("COC(=O)c1cc(S(N)(=O)=O)c(Cl)cc1Sc1cccc2ccccc12")
"-10.1 kcal/mol"
>>> value_reported("COC(=O)c1cc(S(N)(=O)=O)c(Cl)cc1Sc1ccccc1")
"-15.3 kcal/mol"
>>> value_reported("COC(=O)c1cc(S(N)(=O)=O)c(Cl)cc1Cl [Compound 1, Methyl 2,4-dichloro-5-sulfamoyl-benzoate]")
"-13 kcal/mol"
>>> value_reported("COC(=O)c1cc(S(N)(=O)=O)c(S(=O)(=O)Cc2ccccc2)cc1Cl")
"-12.2 kcal/mol"
